The origin of these recorded values is ChEMBL document CHEMBL6177939.

biological target: Histone deacetylase 1 (Homo sapiens, UniProt Q13547); assay: Inhibition of human recombinant HDAC1 using Ac-Leu-Gly-Lys(Ac)-AMC as substrate incubated for 30 mins by EnSpire plate reader analysis
Sequence (Q13547 whole entry): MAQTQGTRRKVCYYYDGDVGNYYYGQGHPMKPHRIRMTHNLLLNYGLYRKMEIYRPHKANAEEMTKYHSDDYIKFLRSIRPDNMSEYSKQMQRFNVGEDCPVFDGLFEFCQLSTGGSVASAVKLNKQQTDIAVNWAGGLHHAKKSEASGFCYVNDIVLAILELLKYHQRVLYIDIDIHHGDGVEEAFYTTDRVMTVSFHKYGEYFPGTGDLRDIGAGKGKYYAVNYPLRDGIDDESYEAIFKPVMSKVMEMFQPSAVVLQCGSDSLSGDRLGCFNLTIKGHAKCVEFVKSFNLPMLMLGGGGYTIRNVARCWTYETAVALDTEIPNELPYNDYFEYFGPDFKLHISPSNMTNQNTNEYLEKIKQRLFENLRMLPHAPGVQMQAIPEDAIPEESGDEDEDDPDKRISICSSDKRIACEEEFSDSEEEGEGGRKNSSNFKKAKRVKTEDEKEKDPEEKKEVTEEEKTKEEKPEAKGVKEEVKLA
QUANTITY NAME: IC50 (nM)
Supply the numeric figure in nM, leaving out any unit text.

Look up IC50 for this compound: C[Si](O)(O)CCCCCCC(=O)Nc1ccccc1 600

###

molecular target: Acetylcholinesterase (Homo sapiens); assay: Inhibition of AChE (unknown origin) using acetylthiocholine iodide as substrate by Ellman's method
Sequence (P22303 whole entry): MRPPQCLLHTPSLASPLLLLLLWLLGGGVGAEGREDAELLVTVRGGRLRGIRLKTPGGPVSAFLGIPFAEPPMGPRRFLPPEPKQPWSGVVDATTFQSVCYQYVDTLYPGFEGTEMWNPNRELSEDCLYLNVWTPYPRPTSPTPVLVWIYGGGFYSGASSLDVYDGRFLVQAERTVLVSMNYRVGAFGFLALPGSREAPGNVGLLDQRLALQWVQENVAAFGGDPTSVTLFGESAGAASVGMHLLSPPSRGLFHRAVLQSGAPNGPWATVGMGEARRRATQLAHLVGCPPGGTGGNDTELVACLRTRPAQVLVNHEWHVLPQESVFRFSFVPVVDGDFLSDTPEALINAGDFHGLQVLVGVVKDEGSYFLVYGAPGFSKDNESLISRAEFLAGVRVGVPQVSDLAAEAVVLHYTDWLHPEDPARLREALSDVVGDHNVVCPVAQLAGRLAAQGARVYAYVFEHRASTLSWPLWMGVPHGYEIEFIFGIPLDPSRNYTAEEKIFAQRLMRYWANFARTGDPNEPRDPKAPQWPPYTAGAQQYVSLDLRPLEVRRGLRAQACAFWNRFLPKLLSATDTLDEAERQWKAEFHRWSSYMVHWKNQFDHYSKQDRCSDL
QUANTITY NAME: IC50 (nM)
Supply the numeric figure in nM, leaving out any unit text.

Look up IC50 for this compound: C[Si]1(Cl)C=CC(=O)C1=P(c1ccccc1)(c1ccccc1)c1ccccc1 (configuration not stated) 113

Repeat with C[Si]1(Cl)C=C/C(=N\c2ccccc2)C1=P(c1ccccc1)(c1ccccc1)c1ccccc1 (configuration not stated) 113
